Tested on: Rattus norvegicus
protocol.summary: Toxicity in ip dosed Wistar rat assessed as tachycardia
Format: organism-based
conditions.used: in vivo
Consider the cut-off 0.09 mg/kg. If the recorded ED50 is strictly smaller, the label is 1 (yes); if not, the label is 0 (no).

molecule	assigned.category
CCCCCC(C)C(C)c1cc(OC(=O)CCCN2CCCCC2)c2c(c1)OC(C)(C)C1=C2CC(C)CC1.Cl (centres undefined)	0 (no)
CCCCCC(C)C(C)c1cc(O)c2c(c1)OC(C)(C)C1=C2CC(C)CC1 (mixture of isomers)	0 (no)
C#CCN1CCC2=C(C1)c1c(OC(=O)C(C)CCN3CCCCC3)cc(C(C)C(C)CCCCC)cc1OC2(C)C.Cl (centres undefined)	0 (no)
Br.CCCCCC(C)C(C)c1cc(OC(=O)CCCN2CCOCC2)c2c(c1)OC(C)(C)C1=C2CC(C)CC1 (centres undefined)	0 (no)
C#CCN1CCC2=C(C1)c1c(OC(=O)C(C)CCN3CCCCC3C)cc(C(C)C(C)CCCCC)cc1OC2(C)C.Cl (centres undefined)	0 (no)
CCCCCc1cc(O)c2c(c1)OC(C)(C)[C@@H]1CCC(C)=C[C@@H]21	1 (yes)
C#CCN1CCC2=C(C1)c1c(OC(=O)CCCN3CCCCC3)cc(C(C)C(C)CCCCC)cc1OC2(C)C.Cl (centres undefined) [NABITAN HYDROCHLORIDE]	0 (no)
C#CCN1CCC2=C(C1)c1c(O)cc(C(C)C(C)CCCCC)cc1OC2(C)C (centres undefined)	1 (yes)

###

System: Rattus norvegicus
protocol.summary: Toxicity in ip dosed Wistar rat assessed as tachycardia
Format: organism-based
conditions.used: in vivo

compound	measurement.target	Activity
C#CCN1CCC2=C(C1)c1c(O)cc(C(C)C(C)CCCCC)cc1OC2(C)C (centres undefined)	Rattus norvegicus	Dose-dependent effect
CCCCCC(C)C(C)c1cc(O)c2c(c1)OC(C)(C)C1=C2CC(C)CC1 (mixture of isomers)	Rattus norvegicus	Dose-dependent effect
Br.CCCCCC(C)C(C)c1cc(OC(=O)CCCN2CCOCC2)c2c(c1)OC(C)(C)C1=C2CC(C)CC1 (centres undefined)	Rattus norvegicus	Dose-dependent effect
CCCCCC(C)C(C)c1cc(OC(=O)CCCN2CCCCC2)c2c(c1)OC(C)(C)C1=C2CC(C)CC1.Cl (centres undefined)	Rattus norvegicus	Dose-dependent effect
CCCCCc1cc(O)c2c(c1)OC(C)(C)[C@@H]1CCC(C)=C[C@@H]21 [DRONABINOL]	Rattus norvegicus	Dose-dependent effect
Br.CCCCCc1cc(OC(=O)CCCN2CCOCC2)c2c(c1)OC(C)(C)[C@@H]1CCC(C)=C[C@@H]21	Rattus norvegicus	Dose-dependent effect
C#CCN1CCC2=C(C1)c1c(OC(=O)C(C)CCN3CCCCC3)cc(C(C)C(C)CCCCC)cc1OC2(C)C.Cl (centres undefined)	Rattus norvegicus	Dose-dependent effect
C#CCN1CCC2=C(C1)c1c(OC(=O)CCCN3CCCCC3)cc(C(C)C(C)CCCCC)cc1OC2(C)C.Cl (centres undefined) [NABITAN HYDROCHLORIDE]	Rattus norvegicus	Dose-dependent effect
C#CCN1CCC2=C(C1)c1c(OC(=O)C(C)CCN3CCCCC3C)cc(C(C)C(C)CCCCC)cc1OC2(C)C.Cl (centres undefined)	Rattus norvegicus	Dose-dependent effect

These data points were gathered from ChEMBL document CHEMBL3243963.
